Experiment: qHTS of pediatric cancer cell lines to identify multiple opportunities for drug repurposing: Primary screen for SK-N-MC cells (AID 1347093)
Settings: SK-N-MC viability, CellTiter-Glo luminescence, 48 h; series mostly up to 46 µM
Records with an inconclusive call do not appear. The source made the active and inactive calls. Calls follow the shape of the dose curve; as a rule, active = well fitted cell-killing curve with a large enough effect; inconclusive = small, poorly fitted or top-dose-only effect; inactive = no such curve, though single readings can be large or run the other way.
Assign a class; possible classes are true (active), false (inactive)

{"Molecule": "C[C@H]1O[C@@H](O[C@H]2CC[C@@]3(C)[C@H](CC[C@@H]4[C@@H]3C[C@@H](O)[C@]3(C)[C@@H](C5=CC(=O)OC5)CC[C@]43O)C2)C[C@H](O)[C@@H]1O[C@H]1C[C@H](O)[C@H](O[C@H]2C[C@H](O)[C@H](O[C@@H]3O[C@H](CO)[C@@H](O)[C@H](O)[C@H]3O)[C@@H](C)O2)[C@@H](C)O1", "Group Label": "true"}

Identify the outcome logged in this assay for the molecule shown: "O=[N+]([O-])c1ccc(/C=N\O)o1"
true

Identify the outcome logged in this assay for the molecule shown: CCN1CCCC(OC(=O)C(c2ccccc2)c2ccccc2)C1 (configuration not stated)
false

Identify the outcome logged in this assay for the molecule shown: CC(C)(C)NCC(O)COc1cccc2c1C[C@H](O)[C@H](O)C2 (some centres not stated)
false

Identify the outcome logged in this assay for the molecule shown: "O=S(=O)(O)c1ccc(O)cc1"
false

Identify the outcome logged in this assay for the molecule shown: "OC[C@H]1O[C@@H]2O[C@H]3[C@H](O)[C@@H](O)[C@@H](O[C@H]4[C@H](O)[C@@H](O)[C@@H](O[C@H]5[C@H](O)[C@@H](O)[C@@H](O[C@H]6[C@H](O)[C@@H](O)[C@@H](O[C@H]7[C@H](O)[C@@H](O)[C@@H](O[C@H]8[C@H](O)[C@@H](O)[C@@H](O[C@H]1[C@H](O)[C@H]2O)O[C@@H]8CO)O[C@@H]7CO)O[C@@H]6CO)O[C@@H]5CO)O[C@@H]4CO)O[C@@H]3CO"
false

Identify the outcome logged in this assay for the molecule shown: "COc1ccc(CCN(C)CCCN2CCc3cc(OC)c(OC)cc3CC2=O)cc1OC"
false

Identify the outcome logged in this assay for the molecule shown: "COc1ccc(C(Cl)=C(c2ccc(OC)cc2)c2ccc(OC)cc2)cc1"
false

Identify the outcome logged in this assay for the molecule shown: Cc1ccccc1OCC(O)CO (configuration not stated)
false

Identify the outcome logged in this assay for the molecule shown: "C[C@@H](O)[C@H]1C(=O)N2C(C(=O)O)=C([C@H]3CCCO3)S[C@H]12"
false

Identify the outcome logged in this assay for the molecule shown: "O=C(NCCc1c[nH]c2ccccc12)c1cccnc1"
false

Identify the outcome logged in this assay for the molecule shown: "Oc1ccccc1C=NCc1ccccc1"
false

###

Test system: AA1029
Assay: qHTS profiling for inhibitors of Plasmodium falciparum proliferation (AID 504749); also: nearly all actives have a fitted effect of over 60% in size
Settings: P. falciparum in erythrocytes, SYBR Green DNA, 72 h; series mostly up to 28.7 µM
Results filed as inconclusive are left out. Active and inactive are the calls of the source. Calls follow the shape of the dose curve; as a rule, active = well fitted inhibition curve with a large enough effect; inconclusive = small, poorly fitted or top-dose-only effect; inactive = flat fitted curve, though single readings scatter.
Quantity Kind: outcome

{"Molecule": "CCc1oc2ccccc2c1C(=O)c1cc(I)c(O)c(I)c1", "Quantity Kind": "outcome", "Recorded Result": "inactive"}
{"Molecule": "Cc1c(-c2ccccc2)oc2c(C(=O)OCCN3CCCCC3)cccc2c1=O", "Quantity Kind": "outcome", "Recorded Result": "inactive"}
{"Molecule": "CCCCC(CC)COC(=O)/C=C/c1ccc(OC)cc1 (stereo unspecified)", "Quantity Kind": "outcome", "Recorded Result": "inactive"}
{"Molecule": "COc1cc(C(=O)N2CCCCCCC2)cc(OC)c1OC", "Quantity Kind": "outcome", "Recorded Result": "inactive"}
{"Molecule": "CC(C)Cc1ccc(CC(=O)O)cc1", "Quantity Kind": "outcome", "Recorded Result": "inactive"}

Please turn your attention to the following entry.
In plain terms, CCCCC(CC)COC(=O)c1ccc(N(C)C)cc1 (stereo unspecified) has a documented outcome of inactive

Reference for the values: PubChem BioAssay (NCATS)
